- measurement_target: LRP6 (recombinant human LRP-6, Fc chimera) (Homo sapiens)
- Sequence: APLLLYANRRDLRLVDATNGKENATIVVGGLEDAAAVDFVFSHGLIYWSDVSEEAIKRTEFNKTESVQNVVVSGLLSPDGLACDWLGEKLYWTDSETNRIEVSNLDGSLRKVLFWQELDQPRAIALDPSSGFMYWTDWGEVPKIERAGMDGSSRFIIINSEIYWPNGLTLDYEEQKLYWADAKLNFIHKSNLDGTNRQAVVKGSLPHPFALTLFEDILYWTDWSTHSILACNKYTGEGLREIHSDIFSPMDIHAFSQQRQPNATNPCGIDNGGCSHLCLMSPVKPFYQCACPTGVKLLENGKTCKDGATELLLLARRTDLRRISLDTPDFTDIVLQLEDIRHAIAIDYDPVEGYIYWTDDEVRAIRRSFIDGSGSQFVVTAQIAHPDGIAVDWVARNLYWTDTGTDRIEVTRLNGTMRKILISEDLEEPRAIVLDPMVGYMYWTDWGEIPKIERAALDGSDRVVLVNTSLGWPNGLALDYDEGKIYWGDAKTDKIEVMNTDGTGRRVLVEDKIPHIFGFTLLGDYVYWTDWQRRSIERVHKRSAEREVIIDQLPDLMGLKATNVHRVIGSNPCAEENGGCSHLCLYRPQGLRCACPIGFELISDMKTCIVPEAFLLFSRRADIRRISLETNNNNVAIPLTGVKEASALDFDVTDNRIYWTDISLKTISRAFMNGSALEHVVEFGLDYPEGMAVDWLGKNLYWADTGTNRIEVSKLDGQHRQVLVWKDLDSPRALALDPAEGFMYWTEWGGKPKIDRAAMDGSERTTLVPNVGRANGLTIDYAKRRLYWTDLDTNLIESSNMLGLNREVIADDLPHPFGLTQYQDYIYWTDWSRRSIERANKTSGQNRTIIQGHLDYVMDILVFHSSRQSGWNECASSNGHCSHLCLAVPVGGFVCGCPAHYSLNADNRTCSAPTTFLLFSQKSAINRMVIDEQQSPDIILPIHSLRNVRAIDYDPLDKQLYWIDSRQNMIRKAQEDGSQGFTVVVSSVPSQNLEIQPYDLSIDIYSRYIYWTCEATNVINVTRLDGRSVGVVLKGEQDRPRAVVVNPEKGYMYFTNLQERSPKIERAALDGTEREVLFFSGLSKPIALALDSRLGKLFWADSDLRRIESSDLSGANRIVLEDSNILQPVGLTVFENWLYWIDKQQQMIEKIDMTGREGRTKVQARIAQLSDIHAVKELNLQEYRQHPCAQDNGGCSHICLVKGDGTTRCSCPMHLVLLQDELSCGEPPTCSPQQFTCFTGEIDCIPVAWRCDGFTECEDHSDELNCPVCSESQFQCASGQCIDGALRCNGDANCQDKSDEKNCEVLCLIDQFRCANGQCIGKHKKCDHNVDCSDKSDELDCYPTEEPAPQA
- assay_info: CE-LIF (NECEEM)
- condition_notes: CE-LIF: incubation pH 8.0, 0.155% glutathione, 0.395% Tris-HCl; running buffer 50 mM borate pH 7.6, 20 kV, 25 C (CE-SELEX conditions). SPR: PBST pH 7.4, 0.05% …
readout_label: Kd (nM)
Your answer is read as nM, so omit the unit and give the number.

Take a look at these entries with their results.
AGCAGCACAGAGGTCAGATGGCCACATTAGTCTCACCACTACCTGCGTACCTACCGCCGCCCTATGCGTGCTACCGTGAA [AptLRP6-A2] = 1280
AGCAGCACAGAGGTCAGATGCGACTTGCCTATCGGCATGACACAATCTTTTGGAGCGTAACCTATGCGTGCTACCGTGAA [AptLRP6-A4] = 661
AGCAGCACAGAGGTCAGATGGCAGCTAAGCAGGCGGCTCACAAAACCATTCGCATGCGGCCCTATGCGTGCTACCGTGAA [AptLRP6-A3] = 105

Note: attention shifts to another entry.
# input // fetch Kd given entry AGCAGCACAGAGGTCAGATGCCGCAGGCAGCTGCCATTAGTCTCTATCCGTGACGGTATGCCTATGCGTGCTACCGTGAA [AptLRP6-A1]
# output 118
